# ASSAY_PROCEDURE: LC/MS measurement of plasma nicotinamide and metabolites in NEAT trial participants
# CONDITION_DETAILS: human, in vivo, 1500 mg, Mean plasma methyl-nicotinamide, plasma nicotinamide unelevated subgroup, treated, 9 participants, 12 months
REPORTED_PROPERTY: concentration at 12 months (µM)

{"MOLECULE": "C[n+]1cccc(C(N)=O)c1 [methyl-nicotinamide, 1-methyl-nicotinamide]", "REPORTED_PROPERTY": "concentration at 12 months", "READOUT_NUMBER": 37}

====

# ASSAY_PROCEDURE: LC/MS measurement of plasma nicotinamide and metabolites in NEAT trial participants
# CONDITION_DETAILS: human, in vivo, po, 1500 mg, Mean plasma methyl-nicotinamide, nicotinamide-treated participants, 1500 mg PO BID, 6 months

{"COMPOUND": "C[n+]1cccc(C(N)=O)c1 [methyl-nicotinamide, 1-methyl-nicotinamide]", "VALUE_UNIT": "µM", "concentration at 6 months": 114}
